The measured values listed here are drawn from patent US11072607B2.

Collected pKi values appear next to each entry.
Biological target: human RIP1 kinase domain (2-375) (Homo sapiens (Human), UniProt Q13546)
Sequence (Q13546 2-375): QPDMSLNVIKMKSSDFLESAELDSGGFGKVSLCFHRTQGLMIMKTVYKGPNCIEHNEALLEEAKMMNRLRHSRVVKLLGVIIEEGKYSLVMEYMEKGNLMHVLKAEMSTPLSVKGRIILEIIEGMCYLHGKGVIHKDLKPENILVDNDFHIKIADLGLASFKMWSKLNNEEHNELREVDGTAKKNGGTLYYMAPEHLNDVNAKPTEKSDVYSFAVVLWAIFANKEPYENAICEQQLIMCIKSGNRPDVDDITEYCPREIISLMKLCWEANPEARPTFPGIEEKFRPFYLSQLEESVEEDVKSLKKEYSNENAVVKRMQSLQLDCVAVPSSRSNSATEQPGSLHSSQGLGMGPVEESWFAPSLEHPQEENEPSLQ
Experiment: RIP1 kinase inhibition assay (biochemical, Transcreener ADP assay)
Details: tight-binding apparent inhibition constant (Ki app, Morrison equation); 50 nM enzyme, 50 uM ATP, 2 hours incubation, fluorescence polarization; read-out: RIP1 Ki
Procedure: Example 45: RIP1 Kinase Inhibition Assays (Biochemical Assay) The compounds of the present invention were tested for their capacity to inhibit RIP1K activity as described below. The ability of the receptor interacting protein kinase (RIPK1) to catalyze the hydrolysis of adenosine-5′-triphosphate (ATP) is monitored using the Transcreener ADP (adenosine-5′-diphosphate) assay (BellBrook Labs). […]
In textbook form, pKi equals minus log to base ten of the concentration in mol/L.

Input: Name the reported pKi value associated with the compound CN1C(=O)[C@@H](NC(=O)c2nc3n(n2)[C@H](c2ccccc2)C[C@H]3F)COc2ccccc21 (single isomer, unassigned)
Output: 7.82

Input: Name the reported pKi value associated with the compound O=C(N[C@H]1CCc2cc(F)cc(F)c2NC1=O)c1nc2n(n1)[C@@H](c1ccccc1)C[C@H]2F (single isomer, unassigned)
Output: 7.89

Input: Name the reported pKi value associated with the compound CN1C(=O)[C@@H](NC(=O)c2nc3n(n2)[C@H](c2ccccc2)CC3)CCc2ncccc21 (single isomer, unassigned)
Output: 7.36

* * *

Biological target: human RIP1 kinase domain (2-375) (Homo sapiens (Human))
Assay: RIP1 kinase inhibition assay (biochemical, Transcreener ADP assay)
Settings: RIP1 Ki, tight-binding apparent inhibition constant (Ki app, Morrison equation); 50 nM enzyme, 50 uM ATP, 2 hours incubation, fluorescence polarization
Description: Example 45: RIP1 Kinase Inhibition Assays (Biochemical Assay) The compounds of the present invention were tested for their capacity to inhibit RIP1K activity as described below. The ability of the receptor interacting protein kinase (RIPK1) to catalyze the hydrolysis of adenosine-5′-triphosphate (ATP) is monitored using the Transcreener ADP (adenosine-5′-diphosphate) assay (BellBrook Labs). […]
reported.metric: Ki (nM)
Numbers only here, please. The scale is nM.

{"compound": "CN1C(=O)[C@@H](NC(=O)c2nc3n(n2)[C@@H](c2ccccc2)CC3(F)F)COc2ccccc21 (racemic)", "Ki, nM": 5}

Input: Value wanted: Ki (human RIP1 kinase domain (2-375) (Homo sapiens (Human))) of entry CN1C(=O)[C@@H](NC(=O)c2nc3n(n2)[C@H](c2ccccc2)C[C@@H]3F)COc2ccccc21 (single isomer, unassigned) [Example #40]
Output: 5

Input: Value wanted: Ki (human RIP1 kinase domain (2-375) (Homo sapiens (Human))) of entry CN1C(=O)[C@@H](NC(=O)c2nc3n(n2)[C@@H](c2ccccc2)CC3(F)F)CCn2nccc21 (racemic)
Output: 28

* * *

Target: human RIP1 kinase domain (2-375) (Homo sapiens (Human), UniProt Q13546)
Experiment: RIP1 kinase inhibition assay (biochemical, Transcreener ADP assay)
Details: tight-binding apparent inhibition constant (Ki app, Morrison equation); 50 nM enzyme, 50 uM ATP, 2 hours incubation, fluorescence polarization; read-out: RIP1 Ki
Collected Ki values appear next to each entry.
Lab note: write values as number then unit, every time.

{"compound": "CN1C(=O)[C@@H](NC(=O)c2ncc3cnn(CC(C)(F)F)c3n2)COc2ccccc21", "Ki": "35 nM"}
{"compound": "Cc1cc2n(n1)CC[C@H](NC(=O)c1nc3n(n1)CC[C@H]3c1ccccc1F)C(=O)N2C (single isomer, unassigned)", "Ki": "18 nM"}
{"compound": "O=C(N[C@H]1CCc2cc(F)cc(F)c2NC1=O)c1nc2n(n1)C(c1ccccc1)CC2F (some centres unmarked)", "Ki": "14 nM"}
{"compound": "CN1C(=O)[C@@H](NC(=O)c2ncn(Cc3ccccc3)n2)CCn2nc(CC3CCOC3)cc21 (some centres unmarked)", "Ki": "16 nM"}
{"compound": "CN1C(=O)[C@@H](NC(=O)c2nc3n(n2)[C@@H](c2ccccc2F)CC3)CCc2ncccc21 (single isomer, unassigned)", "Ki": "29 nM"}

Input: Name the reported Ki value associated with the compound CN1C(=O)[C@@H](NC(=O)c2nc3n(n2)[C@@H](c2ccccc2)C[C@@H]3F)CCn2nccc21 (single isomer, unassigned)
Output: 32 nM

Input: Name the reported Ki value associated with the compound O=C(N[C@H]1CCc2ncccc2NC1=O)c1nc2n(n1)[C@@H](c1ccccc1)CC2 (single isomer, unassigned)
Output: 41 nM

Input: Name the reported Ki value associated with the compound O=C(N[C@H]1CCc2cc(F)cc(F)c2NC1=O)c1nc2n(n1)C(c1ccccc1)CC2(F)F (some centres unmarked)
Output: 22 nM
